- Tested on: acute myeloid leukemia cell line MV4-11
- TEST_DESCRIPTION: Growth of cancer cells, Cell Titer-Glo GI50, MV4-11
- EXPERIMENTAL_SETUP: Homo sapiens, MV4-11, 72 h, read-out: GI50 MV4-11
For each record, check the reported GI50: if it is below 7 nM write MET, else write NOT MET.

Consider the following illustrative entries.
| MOLECULE | MEASURED_TARGET | CLASSIFICATION |
| --- | --- | --- |
| COCCNC1CCC(Nc2nccc(-c3ccc4c(c3)C(C(C)C)(C(C)C)CNC4=O)n2)CC1 (centres unmarked) [Compound 14] | acute myeloid leukemia cell line MV4-11 | NOT MET |
| CN1CCN(c2ccc(Nc3nccc(-c4ccc5c(c4)C(C)(C)CNC5=O)n3)cc2)CC1 [Compound 40] | acute myeloid leukemia cell line MV4-11 | MET |
| COc1cc(F)ccc1-c1cc(Nc2cc(CS(C)(=N)=O)ccn2)ncc1F (centres unmarked) [BAY1251152, reference compound] | acute myeloid leukemia cell line MV4-11 | NOT MET |

Field: next molecule
Here's an entry: CC1(C)CNC(=O)c2ccc(-c3ccnc(Nc4ccc(F)c(CS(C)(=O)=O)c4)n3)cc21 [Compound 36] . Is its GI50 below 7 nM?
MET

---

- MEASURED_TARGET: CDK9/CyclinT1 protein (Homo sapiens (Human), UniProt P50750)
- Sequence (P50750 whole entry): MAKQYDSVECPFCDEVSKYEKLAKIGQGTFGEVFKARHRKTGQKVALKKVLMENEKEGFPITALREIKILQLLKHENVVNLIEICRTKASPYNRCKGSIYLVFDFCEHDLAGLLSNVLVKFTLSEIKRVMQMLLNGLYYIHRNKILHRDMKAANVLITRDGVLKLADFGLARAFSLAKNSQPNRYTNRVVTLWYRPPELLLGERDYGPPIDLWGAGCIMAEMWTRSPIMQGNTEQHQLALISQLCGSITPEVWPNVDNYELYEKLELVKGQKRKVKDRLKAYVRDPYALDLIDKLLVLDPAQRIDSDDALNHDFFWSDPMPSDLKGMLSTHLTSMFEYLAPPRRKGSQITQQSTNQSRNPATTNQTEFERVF
- Sequence (O60563 whole entry partner): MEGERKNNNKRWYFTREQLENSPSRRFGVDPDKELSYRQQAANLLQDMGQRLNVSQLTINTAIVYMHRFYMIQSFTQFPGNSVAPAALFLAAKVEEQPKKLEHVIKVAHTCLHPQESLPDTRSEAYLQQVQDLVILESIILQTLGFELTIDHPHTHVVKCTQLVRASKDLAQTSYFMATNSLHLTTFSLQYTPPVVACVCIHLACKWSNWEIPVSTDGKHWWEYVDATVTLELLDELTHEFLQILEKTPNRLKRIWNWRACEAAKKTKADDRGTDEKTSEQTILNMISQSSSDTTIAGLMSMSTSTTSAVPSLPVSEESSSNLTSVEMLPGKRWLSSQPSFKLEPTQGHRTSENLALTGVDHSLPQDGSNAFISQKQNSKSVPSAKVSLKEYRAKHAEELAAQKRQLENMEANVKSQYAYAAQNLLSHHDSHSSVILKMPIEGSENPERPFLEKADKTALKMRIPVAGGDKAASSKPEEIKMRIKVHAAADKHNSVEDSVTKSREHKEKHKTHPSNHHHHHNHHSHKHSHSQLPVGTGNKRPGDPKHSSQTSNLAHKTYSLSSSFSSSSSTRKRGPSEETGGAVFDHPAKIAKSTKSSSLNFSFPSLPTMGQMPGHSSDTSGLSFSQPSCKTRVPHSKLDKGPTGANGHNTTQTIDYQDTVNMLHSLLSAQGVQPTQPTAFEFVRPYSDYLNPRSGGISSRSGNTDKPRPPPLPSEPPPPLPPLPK
- TEST_DESCRIPTION: Enzyme activity assay of CDK9 protein inhibition in vitro, CDK9/CyclinT1
- EXPERIMENTAL_SETUP: read-out: CDK9/CyclinT1 Protein activity (IC50)
QUANTITY_MEASURED: pIC50
One number for each entry, as −log10 of the molar value.

| COMPOUND | pIC50 |
| --- | --- |
| COC[C@@H](C)NC1CCC(Nc2cc(-c3csc(NCC4(C#N)CCOCC4)n3)c(Cl)cn2)CC1 (some centres unmarked) [JSH-009, reference compound] | 7.54 |

Next item in the queue.
Reported pIC50 for CC(=O)N[C@@H]1CCC[C@H](C(=O)Nc2cc(-c3ccc4c(c3)C(C)(C)CNC4=O)c(Cl)cn2)C1 : what is it?
9.28

---

- MEASURED_TARGET: CDK9 (Homo sapiens (Human))
- Sequence (P50750 whole entry): as the sequence (P50750 whole entry) above
- TEST_DESCRIPTION: Binding activity of compound and CDK9, split luciferase system (C37-CL / CDK9-NL) in HEK-293T cells
- Assay type: cell-based
QUANTITY_MEASURED: pIC50
One number for each entry, as −log10 of the molar value.

Example entries and their recorded answers appear below.
| SMILES | MEASURED_TARGET | pIC50 |
| --- | --- | --- |
| CC1(C)CNC(=O)c2ccc(-c3ccnc(Nc4cccc(N5CCCNCC5)c4)n3)cc21 | CDK9 (Homo sapiens (Human)) | 6.52 |
| CN1CCC(NC(=O)c2cc(Nc3nccc(-c4ccc5c(c4)C(C)(C)CNC5=O)n3)ccc2F)CC1 | CDK9 (Homo sapiens (Human)) | 6.94 |
| CN1CCN(c2ccc(Nc3nccc(-c4ccc5c(c4)C(C)(C)CNC5=O)n3)cc2)CC1 | CDK9 (Homo sapiens (Human)) | 7.17 |

Fill in pIC50 for each of the 2 compounds listed.
1. CC1(C)CNC(=O)c2ccc(-c3ccnc(Nc4ccc(F)c(NS(C)(=O)=O)c4)n3)cc21
2. CN1CCN(c2cccc(Nc3nccc(-c4ccc5c(c4)C(C)(C)CNC5=O)n3)c2)CC1

7.30
7.31
